Test system: K-562 leukemia
EXPERIMENT SUMMARY: NCI-60 one-dose screen, 48 h
EXPERIMENTAL CONTEXT: 10 µM unless noted
About 83,000 compounds went through this panel and 20% of them were active in at least one assay; those are over-represented in the sample as a whole. The source made the active and inactive calls. How the source made its calls: active means growth percent below 10; inactive means the rest.
Assign a class; possible classes are active, inactive

COMPOUND	ASSIGNED CLASS
COc1cc(/C=C\c2cc(/C=C\c3ccc(O)c(OC)c3)n(C(=O)Nc3ccc(C(F)(F)F)cc3)n2)ccc1O	active

Prompt: Which outcome was entered for the compound COC(=O)C(Br)(C(=O)OC)C(Br)C(Br)C(Br)c1ccccc1 (stereo unspecified) in this test?
Completion: inactive

Prompt: Which outcome was entered for the compound CC1(C)OC2OC3C(CN)OC(c4ccccc4)OC3C2O1 (stereo unspecified) in this test?
Completion: inactive

Prompt: Which outcome was entered for the compound CNC1=C([N+](=O)[O-])C(c2ccccc2O)C(C#N)=C(c2cccs2)O1 (stereo unspecified) in this test?
Completion: inactive

Prompt: Which outcome was entered for the compound Clc1ccccc1CNc1c2ccccc2nc2ccccc12 in this test?
Completion: active

Prompt: Which outcome was entered for the compound CCOC(=O)c1cc(C(=O)OCC)c(C)nc1C in this test?
Completion: inactive

Prompt: Which outcome was entered for the compound CCCCSc1ncnc2c1ncn2C1CCCCO1 (stereo unspecified) in this test?
Completion: inactive

Prompt: Which outcome was entered for the compound CC(CN1CCN(CC(C)Nc2ccnc3cc(Cl)ccc23)CC1)Nc1ccnc2cc(Cl)ccc12 (stereo unspecified) in this test?
Completion: active

Prompt: Which outcome was entered for the compound NC(CCC(=O)NC(CS)C(=O)NCC(=O)O)C(=O)O (stereo unspecified) in this test?
Completion: inactive

Prompt: Which outcome was entered for the compound COc1ccc2[nH]cc(C3(c4c[nH]c5ccc(OC)cc45)C(=O)Nc4ccc(Cl)cc43)c2c1 in this test?
Completion: active

Prompt: Which outcome was entered for the compound CC1(C)CC(=O)c2cc3c(N)c(C(=O)Nc4ccc(Cl)cc4)sc3nc2C1 in this test?
Completion: inactive

Prompt: Which outcome was entered for the compound Clc1ccc(-c2cnc3nonc3n2)s1 in this test?
Completion: inactive

Prompt: Which outcome was entered for the compound O=C(CCCCCCN1CC(=O)N2[C@@H](c3ccc(Cl)c(Cl)c3)c3[nH]c4ccccc4c3C[C@H]2C1=O)NO in this test?
Completion: inactive

The reported numbers originate from PubChem BioAssay (NCI).
